Tested on: TK6 human lymphoblastoid cell line
Assay: GreenScreen HC cytotoxicity (propidium iodide uptake)
Type: cell-based
Conditions: 48 h, presence of S9 fraction
MEASURED_ENDPOINT: Cytotoxicity, LEC, 48 h, +S9 (µM)
Numbers only, in µM.

Give the reported Cytotoxicity, LEC, 48 h, +S9 for this compound. C[C@]1(O)CC[C@H](NS(=O)(=O)c2ccc(-c3ccc(F)cc3C(F)(F)F)cc2)CC1
120

Dear reader, for each entry below, please note its Cytotoxicity, LEC, 48 h, +S9.
1. C[C@]1(O)CC[C@H](NS(=O)(=O)c2ccc(-c3ncc(F)cc3F)cc2)CC1
2. C[C@]1(O)CC[C@H](NS(=O)(=O)c2ccc(-c3ncc(F)cc3F)c(F)c2)CC1
3. Cc1cc(S(=O)(=O)N[C@H]2CC[C@H](O)CC2)ccc1-c1ccc(F)cc1F
4. Cc1cc(S(=O)(=O)NC2CCC(C)(O)CC2)ccc1-c1ccc(F)cc1F (single isomer, unassigned) [REF001, reference compound]

1: 120; 2: 60; 3: 5; 4: 0.63

Dear reader, for each entry below, please note its Cytotoxicity, LEC, 48 h, +S9.
1. O=S(=O)(N[C@H]1CC[C@H](O)CC1)c1ccc(-c2ncc(Cl)cc2Cl)cc1 [ABD836, reference compound]
2. C[C@]1(O)CC[C@@H](NS(=O)(=O)c2ccc(-c3c(F)cc(F)cc3F)cc2)CC1

1. 40
2. 10.8

----------
Assay: Rodent pharmacokinetics study
Format: in vivo, Sprague-Dawley rats
Details: rat, oral 5 mg/kg in 0.5% CMC/0.1% Tween-80 (HMC-C-01-A in 2% dimethylacetamide/20% hydroxypropyl-β-cyclodextrin)
What p.o. AUC was measured for each of the following?
Answers are plain numbers, in ng·h/mL.

These recorded examples may help you get a feel for the data.
Give the reported p.o. AUC for this compound. C[C@]1(O)CC[C@H](NS(=O)(=O)c2ccc(-c3ncc(F)cc3F)cc2)CC1
55

Give the reported p.o. AUC for this compound. C[C@]1(O)CC[C@H](NS(=O)(=O)c2ccc(-c3ncc(Cl)cc3Cl)cc2)CC1
16

Give the reported p.o. AUC for this compound. C[C@]1(O)CC[C@H](NS(=O)(=O)c2ccc(-c3ccc(Cl)cc3C#N)cc2)CC1
66.7

Give the reported p.o. AUC for this compound. C[C@]1(O)CC[C@@H](NS(=O)(=O)c2ccc(-c3ncc(F)cc3F)c(F)c2)CC1
141

Dear reader, for each entry below, please note its p.o. AUC.
1. C[C@]1(O)CC[C@H](NS(=O)(=O)c2ccc(-c3c(F)cc(F)cc3F)cc2)CC1
2. C[C@]1(O)CC[C@H](NS(=O)(=O)c2ccc(-c3ccc(F)cc3C(F)(F)F)cc2)CC1
3. C[C@]1(O)CC[C@@H](NS(=O)(=O)c2ccc(-c3ncc(Cl)cc3Cl)cc2)CC1
4. C[C@]1(O)CC[C@@H](NS(=O)(=O)c2ccc(-c3c(F)cc(F)cc3F)cc2)CC1

65.2
17.8
193
157

Dear reader, for each entry below, please note its p.o. AUC.
1. C[C@]1(O)CC[C@@H](NS(=O)(=O)c2ccc(-c3ncc(F)cc3F)cc2)CC1
2. O=S(=O)(N[C@H]1CC[C@H](O)CC1)c1ccc(-c2ncc(Cl)cc2Cl)cc1 [ABD836, reference compound]
3. C[C@]1(O)CC[C@H](NS(=O)(=O)c2ccc(-c3ncc(F)cc3F)c(F)c2)CC1
4. C[C@]1(O)CC[C@H](NS(=O)(=O)c2ccc(-c3ncc(Cl)cc3Cl)c(F)c2)CC1
5. C[C@]1(O)CC[C@@H](NS(=O)(=O)c2ccc(-c3ccc(Cl)cc3C#N)cc2)CC1
6. C[C@]1(O)CC[C@@H](NS(=O)(=O)c2ccc(-c3ccc(F)cc3F)c(F)c2)CC1

1: 107; 2: 98.8; 3: 23.5; 4: 70; 5: 85.3; 6: 156

----------
Assay: Aqueous (FaSSIF) solubility
Type: physicochemical
Conditions: fasted state simulated intestinal fluid (FaSSIF), pH 6.8, two replicates, read-out: Solubility (2)
MEASURED_ENDPOINT: solubility (mg/mL)
Numbers only, in mg/mL.

These recorded examples may help you get a feel for the data.
Give the reported solubility for this compound. C[C@]1(O)CC[C@@H](NS(=O)(=O)c2ccc(-c3ncc(F)cc3F)c(F)c2)CC1 [HMC-N-01-B]
0.12

Give the reported solubility for this compound. C[C@]1(O)CC[C@@H](NS(=O)(=O)c2ccc(-c3c(F)cc(F)cc3F)cc2)CC1 [HMC-C-03-B]
0.15

Give the reported solubility for this compound. C[C@]1(O)CC[C@@H](NS(=O)(=O)c2ccc(-c3ccc(F)cc3F)c(F)c2)CC1 [HMC-C-04-B]
0.13

New cases:
Give the reported solubility for this compound. C[C@]1(O)CC[C@H](NS(=O)(=O)c2ccc(-c3ccc(F)cc3F)c(F)c2)CC1 [HMC-C-04-A]
0.08

----------
System: TK6 human lymphoblastoid cell line
Assay: GreenScreen HC cytotoxicity (propidium iodide uptake)
Assay type: cell-based
Conditions: 48 h, absence of S9 fraction
Respond with MET for Cytotoxicity, LEC, 48 h, −S9 values of 0.1 µM and above, NOT MET for values below.

The examples below pair each entry with its known result.
Does Cytotoxicity, LEC, 48 h, −S9 meet or surpass 0.1 µM for C[C@]1(O)CC[C@H](NS(=O)(=O)c2ccc(-c3c(F)cc(F)cc3F)cc2)CC1 ?
NOT MET

Does Cytotoxicity, LEC, 48 h, −S9 meet or surpass 0.1 µM for C[C@]1(O)CC[C@H](NS(=O)(=O)c2ccc(-c3ncc(F)cc3F)c(F)c2)CC1 ?
MET

Does Cytotoxicity, LEC, 48 h, −S9 meet or surpass 0.1 µM for C[C@]1(O)CC[C@H](NS(=O)(=O)c2ccc(-c3ncc(Cl)cc3Cl)c(F)c2)CC1 ?
MET

Does Cytotoxicity, LEC, 48 h, −S9 meet or surpass 0.1 µM for C[C@]1(O)CC[C@H](NS(=O)(=O)c2ccc(-c3ccc(F)cc3C(F)(F)F)cc2)CC1 ?
MET

Does Cytotoxicity, LEC, 48 h, −S9 meet or surpass 0.1 µM for C[C@]1(O)CC[C@H](NS(=O)(=O)c2ccc(-c3ccc(Cl)cc3C#N)cc2)CC1 ?
MET

Does Cytotoxicity, LEC, 48 h, −S9 meet or surpass 0.1 µM for Cc1cc(S(=O)(=O)NC2CCC(C)(O)CC2)ccc1-c1ccc(F)cc1F (single isomer, unassigned) [REF001, reference compound] ?
NOT MET

Does Cytotoxicity, LEC, 48 h, −S9 meet or surpass 0.1 µM for C[C@]1(O)CC[C@@H](NS(=O)(=O)c2ccc(-c3ncc(F)cc3F)c(F)c2)CC1 ?
NOT MET

Does Cytotoxicity, LEC, 48 h, −S9 meet or surpass 0.1 µM for C[C@]1(O)CC[C@@H](NS(=O)(=O)c2ccc(-c3ccc(Cl)cc3C#N)cc2)CC1 ?
NOT MET

New cases:
Does Cytotoxicity, LEC, 48 h, −S9 meet or surpass 0.1 µM for C[C@]1(O)CC[C@@H](NS(=O)(=O)c2ccc(-c3c(F)cc(F)cc3F)cc2)CC1 ?
NOT MET

Does Cytotoxicity, LEC, 48 h, −S9 meet or surpass 0.1 µM for C[C@]1(O)CC[C@H](NS(=O)(=O)c2ccc(-c3ncc(F)cc3F)cc2)CC1 ?
MET

Does Cytotoxicity, LEC, 48 h, −S9 meet or surpass 0.1 µM for C[C@]1(O)CC[C@@H](NS(=O)(=O)c2ccc(-c3ncc(F)cc3F)cc2)CC1 ?
NOT MET

Does Cytotoxicity, LEC, 48 h, −S9 meet or surpass 0.1 µM for C[C@]1(O)CC[C@H](NS(=O)(=O)c2ccc(-c3ncc(Cl)cc3Cl)cc2)CC1 ?
MET

Does Cytotoxicity, LEC, 48 h, −S9 meet or surpass 0.1 µM for C[C@]1(O)CC[C@H](NS(=O)(=O)c2ccc(-c3ccc(F)cc3F)cc2)CC1 [ABD900, reference compound] ?
NOT MET

Does Cytotoxicity, LEC, 48 h, −S9 meet or surpass 0.1 µM for O=S(=O)(N[C@H]1CC[C@H](O)CC1)c1ccc(-c2ncc(Cl)cc2Cl)cc1 [ABD836, reference compound] ?
NOT MET

Does Cytotoxicity, LEC, 48 h, −S9 meet or surpass 0.1 µM for Cc1cc(S(=O)(=O)N[C@H]2CC[C@H](O)CC2)ccc1-c1ccc(F)cc1F ?
MET

----------
Experiment: Aqueous (FaSSIF) solubility
Format: physicochemical
Conditions: fasted state simulated intestinal fluid (FaSSIF), kinetic from dmso stock, pH 6.5, three replicates, 16 hours, read-out: Solubility (1)
What solubility at 16 h was measured for each of the following?

These recorded examples may help you get a feel for the data.
Give the reported solubility at 16 h for this compound. C[C@]1(O)CC[C@@H](NS(=O)(=O)c2ccc(-c3ccc(F)cc3F)cc2)CC1 [ABD899, reference compound]
60 µg/mL

Give the reported solubility at 16 h for this compound. C[C@]1(O)CC[C@H](NS(=O)(=O)c2ccc(-c3ncc(F)cc3F)cc2)CC1
20 µg/mL

Give the reported solubility at 16 h for this compound. Cc1cc(S(=O)(=O)N[C@H]2CC[C@H](O)CC2)ccc1-c1ccc(F)cc1F
20 µg/mL

Dear reader, for each entry below, please note its solubility at 16 h.
1. O=S(=O)(N[C@H]1CC[C@H](O)CC1)c1ccc(-c2ccc(F)cc2F)cc1 [ABD599, reference compound]
2. C[C@]1(O)CC[C@H](NS(=O)(=O)c2ccc(-c3ncc(F)cc3F)c(F)c2)CC1

30 µg/mL
30 µg/mL
